# assay-procedure: Inhibition of 6His-tagged RING1B (10 to 116 residues)/BMI1 (1 to 104 residues) (unknown origin) extracted from Escherichia coli BL21 (DE3) cells preincubated with compound for 1 hrs followed by 3-(1-(4,26-dioxo-30-((3aS,4S,6aR)-2-oxohexahydro-1H-thieno[3,4-d]imidazol-4-yl)-7,10,13,16,19,22-hexaoxa-3,25-diazatriacontyl)-6-methoxy-1H-indol-4-yl)-5-(6-fluoro-1H-indol-4-yl)-4-isopropyl-1H-pyrrole-2-carboxylic acid addition and measured after 1 hrs by Alphascreen competition assay
# Set-up: species or system Homo sapiens
Threshold 5 µM: IC50 strictly smaller gives yes, otherwise no.

Does the reported IC50 of the following molecule sit strictly below 5 µM? `CC(C)c1c(-c2cccc3[nH]c(CO)cc23)[nH]c(C(=O)O)c1-c1c(Cl)ccc2[nH]ccc12`
yes

Does the reported IC50 of the following molecule sit strictly below 5 µM? `CCOc1cc(-c2c(C(=O)O)[nH]c(-c3cc(F)cc4[nH]ccc34)c2C(C)C)c2cc[nH]c2c1`
yes

Does the reported IC50 of the following molecule sit strictly below 5 µM? `COc1cc(-c2c(C(=O)O)[nH]c(-c3cc(F)cc4[nH]ccc34)c2C(C)C)c2cc[nH]c2c1`
yes

Does the reported IC50 of the following molecule sit strictly below 5 µM? CC(CF)c1c(-c2cccc3[nH]ccc23)[nH]c(C(=O)O)c1-c1cccc2[nH]ccc12 (configuration not stated)
no

Does the reported IC50 of the following molecule sit strictly below 5 µM? `CC(C)c1c(-c2cc(C(F)(F)F)cc3[nH]ccc23)[nH]c(C(=O)O)c1-c1c(Cl)ccc2[nH]ccc12`
no

Does the reported IC50 of the following molecule sit strictly below 5 µM? `CC(C)c1c(-c2cccc3[nH]c(C(=O)O)cc23)[nH]c(C(=O)O)c1-c1c(Cl)ccc2[nH]ccc12`
yes

Does the reported IC50 of the following molecule sit strictly below 5 µM? `Cc1cc(-c2[nH]c(C(=O)O)c(-c3c(Cl)ccc4[nH]ccc34)c2C(C)C)c2cc[nH]c2c1`
no

Does the reported IC50 of the following molecule sit strictly below 5 µM? CC(CO)c1c(-c2cccc3[nH]ccc23)[nH]c(C(=O)O)c1-c1cccc2[nH]ccc12 (configuration not stated)
no

Does the reported IC50 of the following molecule sit strictly below 5 µM? `CC(C)c1c(-c2cc(F)cc3[nH]ccc23)[nH]c(C(=O)O)c1-c1cccc2[nH]ccc12`
yes

Does the reported IC50 of the following molecule sit strictly below 5 µM? `CC(C)c1c(-c2cc(F)cc3[nH]ccc23)[nH]c(C(=O)O)c1-c1c(Cl)ccc2[nH]ccc12`
yes

* * *

Give Activity for every item shown.
# Species on record: Homo sapiens
# assay-procedure: Binding affinity to 15N-labeled RING1B (10 to 116 residues)/BMI1 (1 to 104 residues) (unknown origin) extracted from Escherichia coli BL21 (DE3) cells assessed as sum of A79, G83 and T89 chemical shift perturbations at 200 uM by NMR binding analysis
# number only, unit Hz dropped from output

Indicate its recorded Activity; the molecule in question is `CCOc1cc(-c2c(C(=O)O)[nH]c(-c3cc(F)cc4[nH]ccc34)c2C(C)C)c2cc[nH]c2c1`
331

Indicate its recorded Activity; the molecule in question is `CC(C)c1c(-c2cc(F)cc3[nH]ccc23)[nH]c(C(=O)O)c1-c1cc(F)cc2[nH]ccc12`
330

Indicate its recorded Activity; the molecule in question is `CC(C)c1c(-c2cccc3[nH]ccc23)[nH]c(C(=O)O)c1-c1cccc2[nH]ccc12`
311

Indicate its recorded Activity; the molecule in question is CC(CO)c1c(-c2cccc3[nH]ccc23)[nH]c(C(=O)O)c1-c1cccc2[nH]ccc12 (stereo not drawn)
172

Indicate its recorded Activity; the molecule in question is `CC(C)c1c(-c2cc(F)cc3[nH]ccc23)[nH]c(C(=O)O)c1-c1cc(Cl)cc2[nH]ccc12`
305

Indicate its recorded Activity; the molecule in question is `CC(C)c1c(-c2cc(F)cc3[nH]ccc23)[nH]c(C(=O)O)c1-c1cccc2[nH]ccc12`
329

Indicate its recorded Activity; the molecule in question is CC(CF)c1c(-c2cccc3[nH]ccc23)[nH]c(C(=O)O)c1-c1cccc2[nH]ccc12 (stereo not drawn)
277

Indicate its recorded Activity; the molecule in question is CCC(C)c1c(-c2cccc3[nH]ccc23)[nH]c(C(=O)O)c1-c1cccc2[nH]ccc12 (stereo not drawn)
291

These measurements were taken from ChEMBL document CHEMBL6096680.
